molecular target: T1, human programmed cell death protein 1 (hPD-1) C93S (aa 24-167) (Homo sapiens, UniProt Q15116, C93S); experiment: SPR; Carterra LSA; Fab from the ammonium sulfate precipitate of the culture supernatant immobilised on a NiHC200M chip; hPD-1 (1-1024 nM) or mPD-1-Fc (4-1024 nM) as analyte, fourfold dilution series, no regeneration; HBS-EP pH 7.4, 25 °C; medians over the spots of a construct, KD = koff/kon; details: one partner purified
T1 construct: made as a fusion with a TEV site and human Fc; the Fc was cut off with TEV protease; source: Expi293F, purified (Protein A, TEV cleavage of Fc, SEC; monomer fractions); not shown: Fc (human), C-terminal, cleaved
T1 sequence (Q15116 24-167 C93S): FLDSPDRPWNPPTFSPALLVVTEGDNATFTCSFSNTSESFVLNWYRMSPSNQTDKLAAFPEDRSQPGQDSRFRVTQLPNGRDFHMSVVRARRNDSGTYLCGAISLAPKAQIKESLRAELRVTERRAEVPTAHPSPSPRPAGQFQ
readout.type: Kd

Example cases with answers are listed next.
[[record]]
binder = "toripalimab Fab H.T102Y (Fab, V domains shown, heavy chain of Sm3 with this change; numbers count from the chain's first residue; as the light chain of Sm3; source: Brevibacillus, culture supernatant (ammonium sulfate precipitate); not shown: 6xHis, C-terminal, kept; 6xHN, C-terminal, kept) VH: QGQLVQSGAEVKKPGASVKVSCKASGYTFTDYEMHWVRQAPIHGLEWIGVIESETGGTAYNQKFKGRVTITADKSTSTAYMELSSLRSEDTAVYYCAREGIYTVATTYYWYFDVWGQGTTVTVSS VL: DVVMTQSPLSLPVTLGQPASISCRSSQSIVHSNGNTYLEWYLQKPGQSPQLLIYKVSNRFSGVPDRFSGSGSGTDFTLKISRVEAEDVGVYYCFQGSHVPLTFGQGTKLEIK"
readout_type = "Kd"
reported = "200 nM"

[[record]]
binder = "toripalimab Fab L.V56Y (Fab, V domains shown, as the heavy chain of Sm3; light chain of Sm3 with this change; numbers count from the chain's first residue; source: Brevibacillus, culture supernatant (ammonium sulfate precipitate); not shown: 6xHis, C-terminal, kept; 6xHN, C-terminal, kept) VH: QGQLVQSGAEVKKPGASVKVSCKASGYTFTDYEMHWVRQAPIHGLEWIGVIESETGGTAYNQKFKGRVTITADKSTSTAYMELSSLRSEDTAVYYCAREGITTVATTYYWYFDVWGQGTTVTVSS VL: DVVMTQSPLSLPVTLGQPASISCRSSQSIVHSNGNTYLEWYLQKPGQSPQLLIYKYSNRFSGVPDRFSGSGSGTDFTLKISRVEAEDVGVYYCFQGSHVPLTFGQGTKLEIK"
readout_type = "Kd"
reported = "< 1.47 nM"


# map each binder to its Kd
1. toripalimab Fab L.P100D (Fab, V domains shown, as the heavy chain of Sm3; light chain of Sm3 with this change; numbers count from the chain's first residue; source: Brevibacillus, culture supernatant (ammonium sulfate precipitate); not shown: 6xHis, C-terminal, kept; 6xHN, C-terminal, kept) VH: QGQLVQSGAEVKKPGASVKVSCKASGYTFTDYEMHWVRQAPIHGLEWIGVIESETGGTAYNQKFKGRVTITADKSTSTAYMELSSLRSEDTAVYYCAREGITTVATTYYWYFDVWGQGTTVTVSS VL: DVVMTQSPLSLPVTLGQPASISCRSSQSIVHSNGNTYLEWYLQKPGQSPQLLIYKVSNRFSGVPDRFSGSGSGTDFTLKISRVEAEDVGVYYCFQGSHVDLTFGQGTKLEIK
2. toripalimab Fab H.F64A (Fab, V domains shown, heavy chain of Sm3 with this change; numbers count from the chain's first residue; as the light chain of Sm3; source: Brevibacillus, culture supernatant (ammonium sulfate precipitate); not shown: 6xHis, C-terminal, kept; 6xHN, C-terminal, kept) VH: QGQLVQSGAEVKKPGASVKVSCKASGYTFTDYEMHWVRQAPIHGLEWIGVIESETGGTAYNQKAKGRVTITADKSTSTAYMELSSLRSEDTAVYYCAREGITTVATTYYWYFDVWGQGTTVTVSS VL: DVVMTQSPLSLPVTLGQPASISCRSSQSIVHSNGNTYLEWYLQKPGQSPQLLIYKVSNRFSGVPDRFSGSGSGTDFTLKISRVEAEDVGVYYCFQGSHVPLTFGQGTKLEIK
3. toripalimab Fab H.T103Y (Fab, V domains shown, heavy chain of Sm3 with this change; numbers count from the chain's first residue; as the light chain of Sm3; source: Brevibacillus, culture supernatant (ammonium sulfate precipitate); not shown: 6xHis, C-terminal, kept; 6xHN, C-terminal, kept) VH: QGQLVQSGAEVKKPGASVKVSCKASGYTFTDYEMHWVRQAPIHGLEWIGVIESETGGTAYNQKFKGRVTITADKSTSTAYMELSSLRSEDTAVYYCAREGITYVATTYYWYFDVWGQGTTVTVSS VL: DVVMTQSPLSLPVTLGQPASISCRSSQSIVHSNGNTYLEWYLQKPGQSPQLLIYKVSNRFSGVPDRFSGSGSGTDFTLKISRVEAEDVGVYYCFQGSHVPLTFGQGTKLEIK

Response:
["< 1.32 nM", "< 1.4 nM", "< 2.91 nM"]
